- EXPERIMENTAL TARGET: UniProtKB F9USQ8
- Sequence (F9USQ8 1-306): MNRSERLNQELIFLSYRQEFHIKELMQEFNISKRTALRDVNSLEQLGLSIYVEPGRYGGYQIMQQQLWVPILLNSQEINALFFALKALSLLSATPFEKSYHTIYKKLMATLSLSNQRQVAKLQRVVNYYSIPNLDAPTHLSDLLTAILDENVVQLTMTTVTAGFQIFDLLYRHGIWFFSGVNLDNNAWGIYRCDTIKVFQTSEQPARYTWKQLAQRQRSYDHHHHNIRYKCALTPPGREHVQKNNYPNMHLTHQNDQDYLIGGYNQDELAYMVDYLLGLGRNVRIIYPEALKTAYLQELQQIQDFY
EXPERIMENTAL ENDPOINT: pKd
Please keep in mind that pKd is minus log10 of the molar concentration; only the number is needed.

pKd lookup needed for Nc1nc2c(ncn2[C@@H]2O[C@@H]3CO[P@](=O)(O)O[C@H]4[C@@H](O)[C@H](n5cnc6c(=O)[nH]c(N)nc65)O[C@@H]4CO[P@](=O)(O)O[C@H]3[C@H]2O)c(=O)[nH]1 [c-di-GMP] , thanks.
6.66
